Parameter Plant response rating, Johnsongrass: see the listing below.
System: johnsongrass (Sorghum halepense)
measurement-description: Test E greenhouse herbicide test, pre- and postemergence
Format: in vivo
run-parameters: Preemergence, 31 g ai/ha; scale 0 to 100, 0 no effect, 100 complete control

{"columns": ["smi", "Plant response rating, Johnsongrass"],
 "data": [
  ["Cc1ccc2sc(C)c(-c3c(OC(=O)OC(C)C)c(C)nn(C)c3=O)c2c1", 0],
  ["CCCC(=O)Oc1c(C)nn(C)c(=O)c1-c1c(C)sc2ccc(C)cc12", 0],
  ["Cc1cc(C)c2sc(C)c(-c3c(O)c(C)nn(C)c3=O)c2c1", 35],
  ["Cc1cc2ccccc2c(-c2c(O)c(C)nn(C)c2=O)c1C", 0]
]}
